Biological target: Sodium-dependent dopamine transporter (Rattus norvegicus)
Sequence (P23977 whole entry): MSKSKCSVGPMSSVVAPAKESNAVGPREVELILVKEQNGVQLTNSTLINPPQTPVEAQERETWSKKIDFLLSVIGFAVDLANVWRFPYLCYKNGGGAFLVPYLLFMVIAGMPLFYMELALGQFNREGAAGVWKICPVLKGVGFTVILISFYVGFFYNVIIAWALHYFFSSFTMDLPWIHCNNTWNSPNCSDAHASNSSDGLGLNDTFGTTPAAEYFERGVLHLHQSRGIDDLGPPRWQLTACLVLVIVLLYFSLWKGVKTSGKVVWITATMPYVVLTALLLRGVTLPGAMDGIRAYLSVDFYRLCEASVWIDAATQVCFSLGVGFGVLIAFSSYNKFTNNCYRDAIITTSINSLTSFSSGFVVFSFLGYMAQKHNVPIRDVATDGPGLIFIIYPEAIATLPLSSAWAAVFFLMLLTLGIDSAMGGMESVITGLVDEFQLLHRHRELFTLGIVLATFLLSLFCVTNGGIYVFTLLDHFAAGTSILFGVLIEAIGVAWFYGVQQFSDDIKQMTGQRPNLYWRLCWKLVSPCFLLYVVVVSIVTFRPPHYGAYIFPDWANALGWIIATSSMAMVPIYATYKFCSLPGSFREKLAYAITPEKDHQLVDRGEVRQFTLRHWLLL
Experiment: Inhibitory activity in displacing [125I]- RTI-55 binding to dopamine transporter in rat striatal membranes
pIC50: −log10 of the molar value.
Label rule, in plain words: pIC50 of 9 and up is y, under 9 is n.

-- ask I'd appreciate it if you could say whether CCC(=O)C1C2CCC(CC1c1ccc3ccccc3c1)N2 (stereo not drawn) has pIC50 at least equal to 9.
-- reply y

-- ask I'd appreciate it if you could say whether CCC(=O)C1C(c2ccc3ccccc3c2)CC2CCC1N2C (stereo in doubt) has pIC50 at least equal to 9.
-- reply n

-- ask Confirm if pIC50 reported for the compound CCC(=O)C1C(c2ccc3cc(CC)ccc3c2)CC2CCC1N2C (stereo not drawn) is 9 or above.
-- reply y

-- ask # bool: pIC50 of CCC(=O)C1C(c2ccc(C(C)C)c3ccccc23)CC2CCC1N2C (stereo not drawn) >= 9
-- reply n

-- ask # bool: pIC50 of CCC(=O)C1C(c2ccc3cc(OC)ccc3c2)CC2CCC1N2C (stereo not drawn) >= 9
-- reply y

-- ask Quick check, pIC50 >= 9? CCC(=O)C1C(c2ccc(C)c3ccccc23)CC2CCC1N2C (stereo not drawn)
-- reply n

-- ask Please tell me: is the compound CCC(=O)C1C(c2ccc(CC)c3ccccc23)CC2CCC1N2C (stereo not drawn) at or over 9 in terms of pIC50?
-- reply n

-- ask Entry C=C(C)c1c(OC)ccc2cc(C3CC4CCC(C3C(=O)CC)N4C)ccc12 (stereo not drawn) : is its pIC50 no less than 9?
-- reply n

-- ask Does the compound CCC(=O)C1C(c2ccc3c(C(C)=O)c(OC)ccc3c2)CC2CCC1N2C (stereo not drawn) have recorded pIC50 that is 9 or more?
-- reply n

-- ask For this compound, is measured pIC50 9 or higher? CCC(=O)C1C(c2ccc3ccc(I)cc3c2)CC2CCC1N2C (stereo not drawn)
-- reply y

-- ask # check: pIC50 of CC(=O)C1C(c2cccc3ccccc23)CC2CCC1N2C (stereo in doubt; form 1) is greater than or equal to 9
-- reply n

-- ask Please tell me: is the compound CCC(=O)C1C(c2ccc3c([N+](=O)[O-])c(OC)ccc3c2)CC2CCC1N2C (stereo not drawn) at or over 9 in terms of pIC50?
-- reply n

-- ask State whether the measured pIC50 reaches 9, counting equality as reaching it, for CCC(=O)C1C(c2ccc3cc(I)ccc3c2)CC2CCC1N2C (stereo not drawn)
-- reply y

-- ask Check the entry CCC(=O)C1C(c2ccc3cc(C(C)C)ccc3c2)CC2CCC1N2C (stereo not drawn) : does pIC50 equal or exceed 9?
-- reply y

-- ask Confirm if pIC50 reported for the compound CC(C)C(=O)C1C(c2ccc3ccccc3c2)CC2CCC1N2C (stereo not drawn) is 9 or above.
-- reply y

-- ask Hi team, for CCC(=O)C1C(c2ccc3c(CC)c(OC)ccc3c2)CC2CCC1N2C (stereo not drawn) , is the recorded pIC50 at or above 9?
-- reply n
